Where do these numbers come from? They come from patent US5786145A.

- Target or test system: HIV-1 Rev (Human immunodeficiency virus 1, UniProt P04618 P04618:1-116)
- Sequence (P04618 whole entry, one chain of several): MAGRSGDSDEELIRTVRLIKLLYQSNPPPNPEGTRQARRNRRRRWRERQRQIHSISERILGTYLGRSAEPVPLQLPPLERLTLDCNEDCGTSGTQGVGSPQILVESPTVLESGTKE
- Assay info: filter
- Assay conditions: tags: none stated; heparin-Sepharose and Superose 6 purified; chain copies: oligomer (tetramer likely; about 4 per RBC6, 6-8 per full-length RRE at 50 mM KCl) stated; label: 32P uniform; stem-loop with purine-rich bubble
Readout: Kd (nM)
Form entry: value (nM) — number only.

Ask | Give its Kd value. Item: GGGAGACCGGAAUUCUGGGCGCAGUGUCAUUGACGCUGCGGUACAGGCA (ssRNA) [R22 (A56 deleted)]
Reply | 1.73
